Test system: T1, human GIP receptor (human, UniProt P48546 22-466)
T1 sequence (looked up): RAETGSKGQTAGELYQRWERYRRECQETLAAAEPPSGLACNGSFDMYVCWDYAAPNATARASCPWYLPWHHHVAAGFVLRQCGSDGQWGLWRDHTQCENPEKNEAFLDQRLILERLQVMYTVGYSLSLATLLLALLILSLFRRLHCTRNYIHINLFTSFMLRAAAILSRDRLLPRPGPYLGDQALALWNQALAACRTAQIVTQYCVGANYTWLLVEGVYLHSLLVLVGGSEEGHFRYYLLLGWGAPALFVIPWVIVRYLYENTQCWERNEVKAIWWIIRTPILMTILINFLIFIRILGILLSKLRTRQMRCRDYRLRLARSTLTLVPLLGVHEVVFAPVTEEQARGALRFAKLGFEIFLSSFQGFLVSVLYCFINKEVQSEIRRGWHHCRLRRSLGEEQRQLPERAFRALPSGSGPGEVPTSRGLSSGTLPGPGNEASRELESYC
Test name: cell-based or functional assay
Bridge positions count the residues as written; N and C are the ends. Square brackets hold non-standard residues; d marks the D form. Ends that are not written are not given here. * marks the point of attachment. Acetyl(2-(4-imidazolyl)) = O=C(Cc1c[nH]cn1)*; Aib = CC(C)(N)C(=O)O
Value type: In vitro activity compared to native peptide (%) vs GIP
Just the number in %, nothing appended.

Just so you know, measured In vitro activity compared to native peptide (%) vs GIP for H[Aib]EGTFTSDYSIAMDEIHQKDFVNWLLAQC (bridge 16-20) [Triple agonist of SEQ ID NO: 53] came out at 1.3

Just so you know, measured In vitro activity compared to native peptide (%) vs GIP for {Acetyl(2-(4-imidazolyl))}-[Aib]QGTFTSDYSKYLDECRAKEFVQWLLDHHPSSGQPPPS (bridge 15-19) [Triple agonist of SEQ ID NO: 73] came out at 3

Numbers sourced from patent US20230381281A1.
